TARGET DESC: human c-Met (HGFR), full length, on the cell surface (human, UniProt P08581 25-1390)
Sequence (P08581 25-1390 limits assumed): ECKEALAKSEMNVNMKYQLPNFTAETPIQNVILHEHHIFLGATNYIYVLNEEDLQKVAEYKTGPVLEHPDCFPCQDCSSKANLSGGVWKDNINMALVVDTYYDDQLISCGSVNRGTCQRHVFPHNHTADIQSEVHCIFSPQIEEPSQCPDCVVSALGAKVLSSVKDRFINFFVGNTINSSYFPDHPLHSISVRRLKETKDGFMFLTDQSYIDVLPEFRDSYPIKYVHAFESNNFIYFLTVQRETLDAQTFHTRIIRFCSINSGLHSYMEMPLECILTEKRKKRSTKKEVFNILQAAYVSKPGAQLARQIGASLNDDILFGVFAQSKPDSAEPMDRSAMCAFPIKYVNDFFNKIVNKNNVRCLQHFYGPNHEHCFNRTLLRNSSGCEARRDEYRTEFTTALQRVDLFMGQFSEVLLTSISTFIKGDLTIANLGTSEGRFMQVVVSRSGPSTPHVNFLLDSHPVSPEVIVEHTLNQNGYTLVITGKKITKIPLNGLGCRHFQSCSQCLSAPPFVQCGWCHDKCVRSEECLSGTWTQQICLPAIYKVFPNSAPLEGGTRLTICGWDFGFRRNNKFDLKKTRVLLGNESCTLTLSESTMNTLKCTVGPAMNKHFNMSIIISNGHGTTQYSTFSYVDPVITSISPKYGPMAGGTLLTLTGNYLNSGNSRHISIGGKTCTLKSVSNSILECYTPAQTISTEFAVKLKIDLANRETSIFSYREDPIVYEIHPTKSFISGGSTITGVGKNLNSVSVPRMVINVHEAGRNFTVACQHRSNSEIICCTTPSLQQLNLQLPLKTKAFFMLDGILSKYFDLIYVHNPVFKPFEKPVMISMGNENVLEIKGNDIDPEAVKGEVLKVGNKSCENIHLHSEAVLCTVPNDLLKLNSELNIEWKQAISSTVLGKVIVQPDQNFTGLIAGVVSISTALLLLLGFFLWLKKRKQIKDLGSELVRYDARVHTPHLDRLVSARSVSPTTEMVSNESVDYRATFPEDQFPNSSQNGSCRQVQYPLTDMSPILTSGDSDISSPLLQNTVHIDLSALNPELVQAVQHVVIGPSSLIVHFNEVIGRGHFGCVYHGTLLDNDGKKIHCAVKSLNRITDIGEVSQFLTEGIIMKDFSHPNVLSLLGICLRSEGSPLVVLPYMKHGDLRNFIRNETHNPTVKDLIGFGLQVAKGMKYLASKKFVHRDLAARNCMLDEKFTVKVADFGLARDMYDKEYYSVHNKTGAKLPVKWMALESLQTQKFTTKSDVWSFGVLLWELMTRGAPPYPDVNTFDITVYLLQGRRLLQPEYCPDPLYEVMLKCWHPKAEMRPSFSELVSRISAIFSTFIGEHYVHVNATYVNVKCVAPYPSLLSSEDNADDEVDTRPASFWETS
TEST METHOD NOTES: cell-based or functional assay
ASSAY METRIC: Efficacy (%), in vitro cytotoxicity, NCI-H596, -HGF

1) ADC3 (antibody, human IgG1, kappa, V domains shown, vc-seco-DUBA linker-drug on the engineered cysteine at HC position 41 (Kabat); DAR 1.1) VH: QIQLQQSGPELVKPGASVKISCKASGYTFTDYYLNWVKQRCGQGLEWIGLIFPGNDKTEYSEKFKGKATLTVDTSSSTAYIQLSRLSSEDSAIYFCSGGDYGGFVYWGQGTLVTVSS VL: DIQMTQSPTSLSASVGETVTITCGASENIYGALNWYQRKQGKSPQLLIYGATNLADGMSSRFSGSGSGRQFSLKINSLHPDDVATYFCQNVLSSPLTFGSGTKLEIKR = 16
2) ADC2 (antibody, human IgG1, kappa, V domains shown, vc-seco-DUBA linker-drug on the engineered cysteine at HC position 41 (Kabat); DAR 1.7) VH: QVQLQQSGAELVRPGASVKLSCKASGYVFPDYEMHWVKQTCVHGLEWIGAFDPETGDTTYNQNFKGKATLTADKASSTAYMDLRSLTSGDSAVYYCARDYKYLYYYAMDNWGQGTSVTVSS VL: QIVLTQSPAIMSASLGERVTMTCTASSSITSSYLHWYQQKPGSSPKLWIYSTTNLASGVPGRFSGSGSGTSFSLTISSMEAEDAATYYCHQYRRSPLTFGAGTKLELKR = 6
3) ADC3d (antibody, human IgG1, kappa, V domains shown, vc-seco-DUBA linker-drug on the engineered cysteine at HC position 41 (Kabat); DAR 1.8) VH: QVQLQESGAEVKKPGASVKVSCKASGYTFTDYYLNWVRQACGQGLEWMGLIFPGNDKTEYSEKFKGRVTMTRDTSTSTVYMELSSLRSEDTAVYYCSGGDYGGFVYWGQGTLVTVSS VL: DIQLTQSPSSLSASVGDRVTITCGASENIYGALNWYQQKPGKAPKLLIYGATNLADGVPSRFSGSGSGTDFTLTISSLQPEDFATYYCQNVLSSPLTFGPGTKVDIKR = 5
